Values compiled from patent US8742173B2.

TESTED_SYSTEM: MIF (Homo sapiens)
Sequence (P14174 2-115 limits assumed): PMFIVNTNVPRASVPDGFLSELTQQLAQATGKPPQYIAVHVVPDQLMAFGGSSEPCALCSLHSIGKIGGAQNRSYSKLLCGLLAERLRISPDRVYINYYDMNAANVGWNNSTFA
METHOD_SUMMARY: Spectrophotometric assay of MIF tautomerase activity on L-dopachrome methyl ester
Type: biochemical
PROTOCOL_CONDITIONS: Table 1; L-dopachrome methyl ester substrate; read-out: IC50 for inhibition of MIF tautomerase activity
OBSERVED_PROPERTY: IC50 (nM)
Answer with a number only, understood to be in nM.

**Q:** Consider the molecule COc1ccc(NN=Cc2ccc(O)cc2)cc1 [Compound 6] tested on MIF (Homo sapiens); state its IC50.
**A:** 480

* * *

TESTED_SYSTEM: MIF (Homo sapiens)
METHOD_SUMMARY: Spectrophotometric assay of MIF tautomerase activity on L-dopachrome methyl ester
Format: biochemical
PROTOCOL_CONDITIONS: read-out: IC50, MIF tautomerase
OBSERVED_PROPERTY: IC50 (nM)
Write down the numeric answer in nM and omit the unit.

Below, each entry is followed by its recorded IC50 result.
molecule="COc1ccc(NN=Cc2ccc(O)c(Br)c2)cc1 [Compound 9]" obs_value=330
molecule="COc1ccc(NN=Cc2ccc(O)c(F)c2)cc1 [Compound 7]" obs_value=130

Okay, next one:
**Q:** Respond only with IC50 recorded for COc1ccc(NN=Cc2ccc(O)c(Cl)c2)cc1 [Compound 8]
**A:** 220

* * *

TESTED_SYSTEM: MIF (Homo sapiens, UniProt P14174)
METHOD_SUMMARY: Spectrophotometric assay of MIF tautomerase activity on L-dopachrome methyl ester
Type: biochemical
PROTOCOL_CONDITIONS: Table 2, hydrazone carbamates; L-dopachrome methyl ester substrate; read-out: IC50 for inhibition of MIF tautomerase activity
OBSERVED_PROPERTY: pIC50
// scale note: pIC50 = -log10(conc_M); give the bare number

**Q:** Look up pIC50 of CC(C)(C)OC(=O)NN=Cc1ccc(O)c(F)c1 [Compound 18] and report it.
**A:** 5.62

* * *

OBSERVED_PROPERTY: melting point

sample_smiles=O=C(NN=Cc1ccc(O)cc1)OCc1ccccc1 observed_property="melting point" obs_value="159 to 160 °C"
sample_smiles=COc1ccc(NN=Cc2ccc(O)c(Cl)c2)cc1 observed_property="melting point" obs_value="108 to 110 °C"
sample_smiles=CN(N=Cc1ccc(O)cc1)c1ccccc1 observed_property="melting point" obs_value="93 to 95 °C"
sample_smiles=CNN=Cc1ccc(O)cc1 observed_property="melting point" obs_value="58 to 60 °C"

**Q:** Note melting point for the molecule shown: NN=Cc1ccc(O)cc1
**A:** 248 to 250 °C

**Q:** Fill in reported melting point for this entry: Oc1ccc(C=NNc2ccccc2)cc1
**A:** 154 to 156 °C

**Q:** Look up melting point of CC(C)(C)OC(=O)NN=Cc1ccc(O)cc1 and report it.
**A:** 155 to 156 °C

**Q:** For the molecule CCOC(=O)NN=Cc1ccc(O)cc1 , give its reported melting point.
**A:** 189 to 190 °C

**Q:** Please report the measured melting point for COc1ccc(COC(=O)NN=Cc2ccc(O)cc2)cc1
**A:** 147 to 148 °C

**Q:** Report measured melting point; entry is COc1ccc(NN=Cc2ccc(O)c(Br)c2)cc1
**A:** 135 to 137 °C

* * *

TESTED_SYSTEM: MIF (Homo sapiens)
METHOD_SUMMARY: Spectrophotometric assay of MIF tautomerase activity on L-dopachrome methyl ester
Type: biochemical
PROTOCOL_CONDITIONS: read-out: IC50, MIF tautomerase activity
Below, each of the molecules is paired with its reported pIC50 value.
FYI, pIC50 means -log10 of a concentration in mol per litre.

Examples with their reported pIC50 follow.
sample_smiles=CN(N=Cc1ccc(O)cc1)c1ccccc1 obs_value=3.52
sample_smiles=Oc1ccc(C=NNc2ccccc2)cc1 obs_value=5.59

Could you now look at the following molecule, please?
**Q:** Annotate the molecule CNN=Cc1ccc(O)cc1 with its measured pIC50.
**A:** 4.37
